Test system: Lefty1
EXPERIMENT NOTES: Lefty1 protein binding to printed compounds – biochemical, small-molecule microarray, 635/667 nm fluorescence, primary screen (AID 1139)
APPLIED CONDITIONS: fluorescence 635/667, higher = more signal
QUANTITY MEASURED: composite z-score

Sample records with composite z-score:
O=C1C[C@@](C(=O)NCc2ccccc2)(c2ccc([N+](=O)[O-])cc2)[C@@H](c2ccc(CO)cc2I)N1C1CCCCC1: 0.721
COc1cccc(C[C@H]2C[C@@H](CO[Si](C(C)C)(C(C)C)C(C)C)N3C(=O)[C@]4(C(C)=O)O[C@]23[C@H]2C(=O)N(C)C(=O)[C@H]24)c1: 1.19

Name the reported composite z-score value associated with the compound CN(C)CCCNC(=O)[C@@]1(Cc2ccccc2I)c2ccccc2C(=O)N(Cc2ccccc2Cl)[C@H]1c1ccc(CO)cc1
-0.615
